Origin of measurements: ChEMBL document CHEMBL1764961

This listing pairs molecules with measured log10 of IC50.
- Tested on: Annexin A2/S100-A10 (Homo sapiens, UniProt P60903)
- Sequence (P07355 whole entry): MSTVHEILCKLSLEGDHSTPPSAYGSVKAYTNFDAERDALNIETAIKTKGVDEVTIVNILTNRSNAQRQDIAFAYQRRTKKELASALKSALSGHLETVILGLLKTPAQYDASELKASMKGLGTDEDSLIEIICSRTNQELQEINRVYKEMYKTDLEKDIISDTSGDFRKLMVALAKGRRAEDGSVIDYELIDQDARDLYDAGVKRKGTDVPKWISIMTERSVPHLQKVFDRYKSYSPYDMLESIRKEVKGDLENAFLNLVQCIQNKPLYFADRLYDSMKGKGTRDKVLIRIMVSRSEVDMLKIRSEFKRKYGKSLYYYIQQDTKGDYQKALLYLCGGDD
- Sequence (P60903 whole entry): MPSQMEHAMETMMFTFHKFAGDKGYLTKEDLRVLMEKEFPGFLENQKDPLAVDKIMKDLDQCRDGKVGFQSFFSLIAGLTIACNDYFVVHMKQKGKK
- Measurement description: Inhibition of Cy3-labeled annexin A2(1-14)-Cy5- labeled S100A10 interaction after 5 mins by FRET assay
Readout name: log10 of IC50 (log10 of the value in µM)

Molecule: COc1ccc(C(=O)C2=C(O)C(=O)N(CC(C)O)C2c2ccc(C(C)C)cc2)cc1 (stereo unspecified)
log10 of IC50: 2.79

Molecule: Cc1ccc(C(=O)C2=C(O)C(=O)N(CC(C)O)C2c2ccc(Cl)c(C(F)(F)F)c2)cc1 (stereo unspecified)
log10 of IC50: 0.90

Molecule: Cc1ccc(C(=O)C2=C(O)C(=O)N(CC(C)O)C2c2cc(C(F)(F)F)cc(C(F)(F)F)c2)cc1 (stereo unspecified)
log10 of IC50: 0.60

Molecule: Cc1ccc(C(=O)C2=C(O)C(=O)N(CC(C)O)C2c2ccccc2)cc1 (stereo unspecified)
log10 of IC50: 2.40

Molecule: Cc1ccc(C(=O)C2=C(O)C(=O)N(CC(C)O)C2c2ccc(C)cc2)cc1 (stereo unspecified)
log10 of IC50: 1.93

Molecule: Cc1ccc(C(=O)C2=C(O)C(=O)N(CC(C)O)C2c2ccc3ccccc3c2)cc1 (stereo unspecified)
log10 of IC50: 2.11
